# Test system: UACC-257 melanoma
# ASSAY_NOTES: NCI-60 one-dose screen, 48 h (100 = growth as untreated, 0 = no growth, -100 = all killed)
# CONDITION_SET: 10 µM unless noted
Compounds without any hit were thinned out: in the full panel of roughly 83,000, 20% have a hit.
MEASURE_NAME: growth (%)
One number for each entry, in %.

Check out these entries, answers already filled in.
>>> recorded_number("N#Cc1cccc(-c2c(-c3ccc4ccccc4c3)oc3ccccc3c2=O)c1")
58.2
>>> recorded_number("C=C(C)[C@@H]1CC[C@]2(C(=O)N3CCN(C)CC3)CC[C@]3(C)[C@H](CC[C@@H]4[C@@]5(C)CC(=C/c6ccncc6)/C(=N/O)C(C)(C)[C@@H]5CC[C@]43C)[C@@H]12")
85.8
>>> recorded_number("C[C@]12C=CC(=O)C=C1CCC1C2[C@@H](O)C[C@@]2(C)C1CC[C@]2(O)C(=O)COC(=O)CCC(=O)O (stereo partly specified)")
99.3
>>> recorded_number("COC(=O)c1cc(-c2ccccc2)[nH]c1N/N=C/c1c(Cl)cccc1Cl")
51
>>> recorded_number("Cc1cc(Cl)ccc1Nc1nc(C(F)(F)F)ccc1C(=O)N/N=C/c1ccc([N+](=O)[O-])cc1")
-13.1

For each of the molecules below, state growth.
1. O=C(Nn1c2c(sc1=Nc1ccccc1)C(=O)c1ccccc1C2=O)c1cc2ccc1CCc1ccc(cc1)CC2
2. CNC(=O)c1c(NC(=O)c2ccc(C(F)(F)F)cc2)sc2c1CCC(=O)C2
3. COc1ccc2c(c1)c(-c1noc(C(=O)c3cn(C)c4ccc(Br)cc34)n1)cn2C
4. COc1cc(N2C(=O)[C@H](O)C2c2ccc(SC)cc2)cc(OC)c1OC (stereo partly specified)

62.4
1.26
92.7
42.1

For each of the molecules below, state growth.
1. COC(=O)[C@]1(C)CCC[C@]2(C)[C@H]3C[C@H]4C(C(C)C)=C[C@]3(CC[C@H]21)[C@H]1[C@@H]4[C@@H](OCCC#N)CC[C@@H]1OCCC#N
2. COc1cc(CNS(=O)(=O)c2ccc(C)cc2)ccc1OCc1cn(-c2ccc(F)cc2)nn1
3. COc1cc(NC(C)CCCNC(C)C)c2ncccc2c1OC (stereo unspecified)
4. Brc1c2c(c(Br)c3ccccc13)CCCC2
5. CCOC(=O)c1cc(-c2ccc([N+](=O)[O-])cc2)n(-c2ccc(C(=O)O)c(O)c2)c1C

1: 37.8; 2: 89.9; 3: 107; 4: 89.8; 5: 46.2

For each of the molecules below, state growth.
1. Cc1cccc2c1NC(=O)C2(c1ccc(O)cc1)c1ccc(O)cc1
2. CCOC(=O)c1[nH]c(=O)c2c(C)nc(-c3ccccc3)cc2c1O
3. O=C(Cn1c(-c2ccc([N+](=O)[O-])cc2)nc2ccccc21)NNC(=O)c1cccnc1
4. CCOC(=O)/C=C1\S/C(=N\Nc2cc(=O)[nH]c3ccc(Cl)cc23)N(c2ccccc2)C1=O
5. O=C(COc1ccc(-c2nc3ccccc3[nH]2)cc1)N=Nc1c(O)[nH]c2ccc(Cl)cc12
6. CN1CCN(C(=O)c2ccc(NC(=O)Nc3ccc(-c4nc(N5CCOCC5)c5cccn5n4)cc3)cc2)CC1
7. CCCCNc1ccc(C#N)c(OCCN(CC)CC)c1
8. CC(C)(C)c1cc(-c2nc3ccc(N4CCN(S(C)(=O)=O)CC4)cc3[nH]2)cc(C(C)(C)C)c1O

[79.4, 106, 86.7, 95.6, 104, -21.3, 114, 98.9]

Just for reference, PubChem BioAssay (NCI) is where these values come from.
